The measured values listed here are drawn from the Immune Epitope Database (IEDB).

test.target: HLA-A*29:02
test.description: IEDB peptide-MHC binding, purified MHC/direct/fluorescence; filed as Kd, often an IC50 or EC50 that approximates it; bounds were set here for any values at or beyond the usual limits of such assays
conditions.used: source organism: Vibrio cholerae O139
observed.property: Kd

In [3]: df
Out[3]:
   record_sequence  reported_measurement
0        EKDSNHNVL               ≥ 20 µM

---

test.target: HLA-B*51:01
test.description: IEDB peptide-MHC binding, purified MHC/direct/fluorescence; filed as Kd, often an IC50 or EC50 that approximates it; bounds were set here for any values at or beyond the usual limits of such assays
conditions.used: source organism: Cryptosporidium parvum Iowa II
observed.property: Kd

>>> df
   record_sequence  reported_measurement
0        YLAKLFLDH               ≥ 20 µM

---

test.target: HLA-B*51:01
test.description: IEDB peptide-MHC binding, purified MHC/competitive/fluorescence; filed as Kd, often an IC50 or EC50 that approximates it; bounds were set here for any values at or beyond the usual limits of such assays
conditions.used: source organism: Lechiguanas virus
pKd: −log10 of the molar value.
observed.property: pKd

>>> df
   record_sequence  reported_measurement
0        KLKSVGKAY                ≤ 4.70
1        SCINGQCPY                ≤ 4.70

---

test.target: HLA-A*31:01
test.description: IEDB peptide-MHC binding, purified MHC/direct/fluorescence; filed as Kd, often an IC50 or EC50 that approximates it; bounds were set here for any values at or beyond the usual limits of such assays
conditions.used: source organism: Pasteurella multocida
observed.property: Kd (nM)

   record_sequence  observed_property  reported_measurement
0        LMAEDLANV                 Kd                  2580

---

test.target: HLA-A*02:17
test.description: IEDB peptide-MHC binding, purified MHC/competitive/radioactivity; filed as Kd, often an IC50 or EC50 that approximates it; bounds were set here for any values at or beyond the usual limits of such assays
conditions.used: source organism: Dengue virus 2 Jamaica/1409/1983
Consider the following sequences and their measured Kd readings.
observed.property: Kd

In [3]: df
Out[3]:
   record_sequence  test_target  observed_property  reported_measurement
0        FLNEDHWFS  HLA-A*02:17                 Kd                185 nM
1       ILLTAVAPSM  HLA-A*02:17                 Kd               5960 nM
2        IMAVGMVSI  HLA-A*02:17                 Kd                785 nM
3        FLDLPLPWL  HLA-A*02:17                 Kd               9.46 nM
4       YQLAVTIMAI  HLA-A*02:17                 Kd               7840 nM

---

test.target: HLA-A*11:01
test.description: IEDB peptide-MHC binding, purified MHC/competitive/radioactivity; filed as Kd, often an IC50 or EC50 that approximates it; bounds were set here for any values at or beyond the usual limits of such assays
conditions.used: source organism: Mammarenavirus brazilense
As shown below, each of these sequences has a reported Kd value.
observed.property: Kd

In [3]: df
Out[3]:
   record_sequence  reported_measurement
0       NYILCYRKPH             ≥ 69.7 µM
1       DFTLFIKTGH             ≥ 58.7 µM
2       QAEPSLYGRH             ≥ 69.7 µM

---

test.target: HLA-B*45:01
test.description: IEDB peptide-MHC binding, purified MHC/competitive/radioactivity; filed as Kd, often an IC50 or EC50 that approximates it; bounds were set here for any values at or beyond the usual limits of such assays
conditions.used: source organism: Mammarenavirus juninense
Item-by-item account of Kd
observed.property: Kd (µM)

   record_sequence  value_relation_sign  reported_measurement
0       AETGSQGVYM                    =                  13.6
1        HDLPLLCNL                    ≥                  77.7

---

test.target: HLA-B*44:02
test.description: IEDB peptide-MHC binding, purified MHC/competitive/fluorescence; filed as Kd, often an IC50 or EC50 that approximates it; bounds were set here for any values at or beyond the usual limits of such assays
conditions.used: source organism: Vibrio cholerae 2740-80
pKd: −log10 of the molar value.
observed.property: pKd

>>> print(df.to_string())
   record_sequence  test_target  observed_property  reported_measurement
0        MGMEQTMSV  HLA-B*44:02                pKd                ≤ 5.30

---

test.target: HLA-B*57:01
test.description: IEDB peptide-MHC binding, purified MHC/competitive/radioactivity; filed as Kd, often an IC50 or EC50 that approximates it; bounds were set here for any values at or beyond the usual limits of such assays
conditions.used: source organism: Dengue virus 4 Philippines/H241/1956
observed.property: Kd (nM)

>>> print(df.to_string())
   record_sequence  test_target  reported_measurement
0       MSSEGAWKHA  HLA-B*57:01                   134
1        KTQRSGALW  HLA-B*57:01                   105

---

test.target: HLA-A*23:01
test.description: IEDB peptide-MHC binding, purified MHC/competitive/radioactivity; filed as Kd, often an IC50 or EC50 that approximates it; bounds were set here for any values at or beyond the usual limits of such assays
conditions.used: source organism: Vaccinia virus WR
observed.property: Kd

In [3]: df
Out[3]:
   record_sequence  test_target  reported_measurement
0        QSDTVFDYY  HLA-A*23:01             ≥ 32.5 µM

---

Entries and their Kd
test.target: HLA-B*18:01
test.description: IEDB peptide-MHC binding, purified MHC/direct/fluorescence; filed as Kd, often an IC50 or EC50 that approximates it; bounds were set here for any values at or beyond the usual limits of such assays
conditions.used: source organism: Yellow fever virus
observed.property: Kd

>>> df
   record_sequence  observed_property  reported_measurement
0        PHAATIRVL                 Kd               ≥ 20 µM
1        VQGFIFFFL                 Kd                ≥ 5 µM

---

test.target: HLA-B*08:03
test.description: IEDB peptide-MHC binding, purified MHC/competitive/fluorescence; filed as Kd, often an IC50 or EC50 that approximates it; bounds were set here for any values at or beyond the usual limits of such assays
conditions.used: source organism: Human immunodeficiency virus 1
pKd: −log10 of the molar value.
observed.property: pKd

In [3]: df
Out[3]:
   record_sequence  test_target  observed_property  reported_measurement
0       IATLYCVHQK  HLA-B*08:03                pKd                ≤ 4.70

---

test.target: HLA-B*58:01
test.description: IEDB peptide-MHC binding, purified MHC/direct/fluorescence; filed as Kd, often an IC50 or EC50 that approximates it; bounds were set here for any values at or beyond the usual limits of such assays
conditions.used: source organism: Giardia lamblia ATCC 50803
pKd: −log10 of the molar value.
pKd listing for selected sequences.
observed.property: pKd

>>> print(df.to_string())
   record_sequence  reported_measurement
0        EFFDTEPQL                ≤ 4.70
1        KLLQICMWF                  5.83
2        ATSGYRIAY                  5.78
3        PTKCGENLY                ≤ 4.70
4        RENQVAVVR                ≤ 4.70
5        KTPWDRFCK                ≤ 4.70

---

test.target: HLA-B*07:02
test.description: IEDB peptide-MHC binding, purified MHC/competitive/radioactivity; filed as Kd, often an IC50 or EC50 that approximates it; bounds were set here for any values at or beyond the usual limits of such assays
conditions.used: source organism: Vaccinia virus WR
pKd: −log10 of the molar value.
observed.property: pKd

>>> df
   record_sequence  value_relation_sign  reported_measurement
0        SPPIPMSRL                    =                  9.12
1       SPPLISILMI                    =                  6.00
2        DPTFQLLNM                    ≤                  4.11
3        RVYEALYYV                    ≤                  4.27
